assayed system: amylin receptor AMY1, a CT (calcitonin) receptor/RAMP1 (receptor-activity modifying protein) complex (UniProt P30988 25-474; O60894 27-148, limits assumed)
Sequence (P30988 25-474 limits assumed, chain 1 of 2): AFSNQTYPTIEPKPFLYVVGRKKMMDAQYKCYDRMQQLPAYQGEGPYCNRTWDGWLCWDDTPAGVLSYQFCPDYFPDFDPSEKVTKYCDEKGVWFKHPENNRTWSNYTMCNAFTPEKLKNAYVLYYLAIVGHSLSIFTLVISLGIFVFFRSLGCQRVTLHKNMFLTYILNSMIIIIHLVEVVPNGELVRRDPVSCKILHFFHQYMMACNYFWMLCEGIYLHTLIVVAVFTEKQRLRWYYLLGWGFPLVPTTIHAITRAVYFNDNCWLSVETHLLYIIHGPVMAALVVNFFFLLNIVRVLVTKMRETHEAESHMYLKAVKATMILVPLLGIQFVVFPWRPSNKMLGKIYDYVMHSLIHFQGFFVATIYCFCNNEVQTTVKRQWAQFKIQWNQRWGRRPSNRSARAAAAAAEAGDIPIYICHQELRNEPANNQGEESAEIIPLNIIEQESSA
Sequence (O60894 27-148 limits assumed, chain 2 of 2): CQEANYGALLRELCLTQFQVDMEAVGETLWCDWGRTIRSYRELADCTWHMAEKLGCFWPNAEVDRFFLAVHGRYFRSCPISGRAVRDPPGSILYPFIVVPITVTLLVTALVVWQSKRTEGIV
test: cell-based or functional assay
Ends that are not written are not given here.
# IC50 nM (calcium flux, inhibition of stimulation by 32 nM α-CGRP) per entry
API: value field is a number in nM; no unit string.

ACVLGACVLGRLSQELHRLQTYPVDPSSPHSY-NH2 (not fully specified (bridges); printed as Ala-Cys-Val-Leu-Gly-Ala-Cys-Val-Leu-Gly-Arg-Leu-Ser-Gln-Glu-Leu-His-Arg-Leu-Gln-Thr-Tyr-Pro-Val-Asp-Pro-Ser-Ser-Pro-His-Ser-Tyr-NH2; cysteine pairing not given here) [modified calcitonin gene-related peptide antagonist of SEQ ID NO: 14]: 1020
H-ACVLGACVLGRLSQELHRLQTYPRTNVGSKAF-NH2 (not fully specified (bridges); printed as NH2-Ala-Cys-Val-Leu-Gly-Ala-Cys-Val-Leu-Gly-Arg-Leu-Ser-Gln-Glu-Leu-His-Arg-Leu-Gln-Thr-Tyr-Pro-Arg-Thr-Asn-Val-Gly-Ser-Lys-Ala-Phe-NH2; cysteine pairing not given here) [modified calcitonin gene-related peptide antagonist of SEQ ID NO: 5]: 75

With those in mind, consider the next binder.
Could you please provide reported IC50 nM (calcium flux, inhibition of stimulation by 32 nM α-CGRP) for H-ACRFGACVLGRLSQELHRLQTYPRTNVGSKAF-NH2 (not fully specified (bridges); printed as NH2-Ala-Cys-Arg-Phe-Gly-Ala-Cys-Val-Leu-Gly-Arg-Leu-Ser-Gln-Glu-Leu-His-Arg-Leu-Gln-Thr-Tyr-Pro-Arg-Thr-Asn-Val-Gly-Ser-Lys-Ala-Phe-NH2; cysteine pairing not given here) [modified calcitonin gene-related peptide antagonist of SEQ ID NO: 6] ? Thanks! 33
